meta.source: patent US9238039B2

# System: RSV strain A2
# Assay: RSV antiviral cytoprotection assay in Hep2 cells (96-well and 384-well format, Cell TiterGlo read-out)
# Type: cell-based, Respiratory Syncytial Virus (RSV)
# Condition Notes: human respiratory syncytial virus, HEp-2, 0.5 uM; RSV-induced cytopathic effect in Hep2 cells; calculated from fitted dose response curve, normalized to 0% and 100%
Outcome Measure: inhibition at 0.5 µM
Show the value, then the unit it is measured in.

Solved cases (2 shown):
CC(=O)Nc1c(Cl)ccc(Cl)c1C(=O)N1CCCC[C@H]1c1cc2[nH]c(C)c(C)c(=O)n2n1: 92%
CS(=O)(=O)Nc1ccc(Cl)cc1C(=O)N1CCCC[C@H]1c1cc2nc(N3CC(N)C3)cc(N3CCOCC3)n2n1: 100%

// inhibition at 0.5 µM lookup, molecule = Cc1cn2nc([C@@H]3CCCCN3C(=O)c3ccc(Cn4cccn4)o3)cc2nc1N1CC[C@H](N)C1 , result: 99%

For reference, reported inhibition at 0.5 µM for COc1cccc(C(=O)N2CCCC[C@H]2c2cc3nc(N4CC[C@H](N)C4)c(C)cn3n2)c1O stands at 98%

The measured inhibition at 0.5 µM associated with Cc1cn2nc([C@@H]3CCCCN3C(=O)c3cncs3)cc2nc1N1CC[C@H](N)C1 reads 90%

Input CC(=O)Nc1ccc(Cl)cc1C(=O)N1CCCC[C@H]1c1cc2nc(N3CC(O)C3)c(C)cn2n1 . Output inhibition at 0.5 µM: 100%

The measured inhibition at 0.5 µM associated with Cc1cn2nc([C@@H]3CCCCN3C(=O)c3cc(Cl)ccc3NS(C)(=O)=O)cc2nc1N1CC(OP(=O)(O)O)C1 reads 88%
